Target: Solute carrier family 2, facilitated glucose transporter member 1 (Homo sapiens) (UniProt P11166)
Sequence (P11166 whole entry): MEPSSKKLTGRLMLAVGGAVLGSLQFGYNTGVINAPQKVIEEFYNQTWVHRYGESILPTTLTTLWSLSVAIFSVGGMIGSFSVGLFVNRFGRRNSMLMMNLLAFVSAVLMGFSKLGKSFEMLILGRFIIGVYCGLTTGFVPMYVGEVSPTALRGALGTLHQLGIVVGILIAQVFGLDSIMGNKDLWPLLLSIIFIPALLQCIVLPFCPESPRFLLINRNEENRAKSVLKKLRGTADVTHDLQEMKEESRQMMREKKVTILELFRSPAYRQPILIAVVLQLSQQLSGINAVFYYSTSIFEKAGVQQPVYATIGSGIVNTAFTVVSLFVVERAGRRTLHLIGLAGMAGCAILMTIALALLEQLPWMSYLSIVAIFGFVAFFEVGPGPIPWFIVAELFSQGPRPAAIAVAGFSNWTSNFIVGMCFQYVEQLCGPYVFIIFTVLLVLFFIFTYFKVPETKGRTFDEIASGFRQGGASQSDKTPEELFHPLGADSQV
Assay: ST_JUDE_LEISH: Cytotoxicity at 2uM final concentration against transgenic Leishmania Mexicana promastigotes LmGLUT1 that are glucose transport deficient and complemented with the human glucose transporter GLUT1. Activity is measured by DNA content using SYBR green in vitro
Format: functional
Measured inhibition, listed per entry for reference.
property label: inhibition (%)

molecule: CCOC(=O)c1ccc(N(CCCN(CCCN(c2ccc(C(=O)OCC)cc2)S(=O)(=O)c2ccc(C)cc2)CCc2ccc(O)cc2)S(=O)(=O)c2ccc(C)cc2)cc1
measured value: 2.89

molecule: COc1ccc(C(=O)NCC(C)(C)c2nc(-c3ccc(Cl)c(O)c3)c(-c3ccncc3)[nH]2)cc1OCCN(C(C)C)C(C)C
measured value: -1.11

molecule: O=C(NC1CC1)c1cnc(N2CCC(OCc3ccccc3)CC2)c(Cl)c1
measured value: 1.59

molecule: Cc1ccc(Nc2nc(C)cc(Nc3cccc(NS(C)(=O)=O)c3)n2)cc1
measured value: 11.5

molecule: CCOC(=O)c1ccc(NC(=O)Nc2cccc(-c3cccc(-c4nc5cccc(C)c5[nH]4)c3)c2)cc1
measured value: 2.35

molecule: N#Cc1cccc(NC(=O)Nc2ccc(CC(=O)N3CCc4cc(Cl)c(N5CCN(C/C=C/c6ccccc6)CC5)cc43)cc2)c1
measured value: 2.33

molecule: CCc1ccc(OCc2ccccc2C(=O)Nc2ccc3nc(C)cc(N)c3c2)cc1
measured value: 2.1

molecule: O=C(NC1CC1)c1ccc(Cn2c(SCc3cccc([N+](=O)[O-])c3)nc3ccccc3c2=O)cc1
measured value: 1.19

molecule: O=C1NC(c2ccc(N3CCCCCC3)cc2)Nc2ccccc21 (centres undefined)
measured value: 6.32

molecule: Cc1nc(SCC(=O)N2CCCC2=O)c2c(C)c(C)sc2n1
measured value: 8.94

molecule: CCOC(=O)c1cn(CC)c2cc(OCc3ccccc3)ccc2c1=O
measured value: 0.45

molecule: CC(NCC(O)Cn1c2ccccc2c2ccccc21)c1ccccc1 (centres undefined)
measured value: 0.86

molecule: CCNc1cc(C)nc(Nc2ccc(NS(=O)(=O)c3ccccc3)cc2)n1
measured value: 17.8

molecule: Cc1cc(-c2ccc(Cl)cc2)c2c(N)c(C(=O)Nc3ccc(F)cc3)sc2n1
measured value: 0.19

molecule: COc1ccc2nccc([C@@H](O)CN3CCC(NCc4cc5c(F)ccc(F)c5[nH]4)CC3)c2n1
measured value: 87.9

molecule: COCCN1CCC(NCC(C)(C)c2nc(-c3ccc(Cl)c(O)c3)c(-c3ccncc3)[nH]2)CC1
measured value: 4.86

molecule: O=C(NC1CCCCN(Cc2ccccc2O)C1)c1ccc(-c2ccccc2)cc1 (centres undefined)
measured value: 2.73

molecule: COc1ccc(O)cc1/C=N/Nc1ccnc2cc(Cl)ccc12
measured value: 7.1

molecule: COc1ccc(CN(C)CCCCc2ccc(NC(=O)COc3cccc4sc5ccccc5c(=O)c34)cc2)cc1OC
measured value: 1.62

---

Target: Solute carrier family 2, facilitated glucose transporter member 1 (Homo sapiens)
Experiment: ST_JUDE_LEISH: Cytotoxicity at 2uM final concentration against transgenic Leishmania Mexicana promastigotes LmGLUT1 that are glucose transport deficient and complemented with the human glucose transporter GLUT1. Activity is measured by DNA content using SYBR green in vitro
Type: functional
property label: inhibition

molecule: N#Cc1cccc(NC(=O)NC2CCN(CCCCCNC(=O)C3CC3c3ccc(Cl)c(Cl)c3)CC2)c1 (stereo not given)
measured value: 0.56%

molecule: Nc1ccnc2ccc(OCCCCCCc3ccccc3)cc12
measured value: -1.77%

molecule: CCN(CCCN1CCCCC1)c1cc(C)nc(Nc2ccc(C)cc2C(F)(F)F)n1
measured value: -1.87%

molecule: CC(=O)c1sc(Cc2nc3ccccc3s2)nc1C
measured value: 0.49%

molecule: c1ccc(CNCCn2c(-c3ccc4c(c3)CCO4)nc3c(N4CCCC4)cccc32)cc1
measured value: 11.7%
